Reference source for all entries: ChEMBL document CHEMBL1201862

tested on: K562; assay: NCI tumour cell line growth inhibition, 48 h
The source made the active and inactive calls. Rule as the data show it: active = GI50 up to about 1.1 µM and inactive = higher.
Readout Type: GI50

Query :: Would you kindly share the measured GI50 for CCOC(=O)CCC(C(=O)OCC)n1nnc2ccc(Nc3c(C)[n+]([O-])c4cc(F)c(OCC)cc4[n+]3[O-])cc21 (centres undefined) ?
Result :: 41.4 µM (inactive)

Query :: Now this one: CN(C)CCN(c1ccccn1)c1ccccn1
Result :: > 100 µM (inactive)

Query :: Now this one: CCCCOC(=O)NC(=O)c1cn(CCCOC(=O)CCCCCCCCC(=O)OCCCn2cc(C(=O)NC(=O)OCCCC)c(=O)n(C)c2=O)c(=O)n(C)c1=O
Result :: > 100 µM (inactive)

Query :: Now this one: CC(C)=CCC[C@@H](C)C1=C(O)C(=O)C(C)=C(Nc2ccccc2F)C1=O
Result :: 9.62 µM (inactive)
